target: HLA-A*33:01; assay: IEDB peptide-MHC binding, purified MHC/competitive/radioactivity; filed as Kd, often an IC50 or EC50 that approximates it; bounds were set here for any values at or beyond the usual limits of such assays; details: source organism: Lassa virus Josiah
Result type: Kd
Answer with the figure and its unit, nothing else.

Entry `ENAVWDQYK` , Kd reported as 0.958 µM

###

target: HLA-C*03:03; experiment: IEDB peptide-MHC binding, purified MHC/direct/fluorescence; filed as Kd, often an IC50 or EC50 that approximates it; bounds were set here for any values at or beyond the usual limits of such assays; conditions: source organism: Escherichia coli 536
Result type: pKd
Answer as the number alone; pKd is minus log10 of concentration in mol/L.

Entry `FMFDSDEAM` , pKd reported as 8.30

###

target: HLA-A*69:01; test: IEDB peptide-MHC binding, purified MHC/direct/fluorescence; filed as Kd, often an IC50 or EC50 that approximates it; bounds were set here for any values at or beyond the usual limits of such assays; conditions: source organism: Entamoeba histolytica HM-1:IMSS
pKd: −log10 of the molar value.
Result type: pKd

Entry `RQRHYFDSA` , pKd reported as ≤ 4.70

###

target: HLA-A*68:02; experiment: IEDB peptide-MHC binding, purified MHC/competitive/radioactivity; filed as Kd, often an IC50 or EC50 that approximates it; bounds were set here for any values at or beyond the usual limits of such assays; details: source organism: Trypanosoma cruzi
Result type: Kd (µM)
Report the value in µM with no unit label.

With HLA-A*68:02 as the test system, `LVGLWGAAAL` showed Kd of 5.25

###

biological target: HLA-A*26:01; assay: IEDB peptide-MHC binding, purified MHC/competitive/fluorescence; filed as Kd, often an IC50 or EC50 that approximates it; bounds were set here for any values at or beyond the usual limits of such assays; conditions: source organism: Cryptosporidium parvum Iowa II
pKd: −log10 of the molar value.
Result type: pKd

Entry `DLAQDPMLI` , pKd reported as ≤ 4.70

###

biological target: HLA-A*03:01; test: IEDB peptide-MHC binding, purified MHC/competitive/radioactivity; filed as Kd, often an IC50 or EC50 that approximates it; bounds were set here for any values at or beyond the usual limits of such assays; conditions: source organism: Vaccinia virus WR
Result type: pKd
Answer as the number alone; pKd is minus log10 of concentration in mol/L.

INSERT INTO measurements (chain, result_type, value) VALUES
  ('AIITPVVFYR', 'pKd', 5.43),
  ('FIKPVSDLY', 'pKd', 6.19),
  ('TLVPVLEKK', 'pKd', 6.63),
  ('LIVTFRERY', 'pKd', 5.33);

With HLA-A*03:01 as the test system, `MLPESDLDK` showed pKd of 5.25

With HLA-A*03:01 as the test system, `STVKTNLYMK` showed pKd of 6.67

With HLA-A*03:01 as the test system, `AVNTPVSMTY` showed pKd of 7.15

With HLA-A*03:01 as the test system, `NTILLSDKGK` showed pKd of 7.02

With HLA-A*03:01 as the test system, `VLDIISSKQY` showed pKd of 6.22

With HLA-A*03:01 as the test system, `LIPVSEVLLK` showed pKd of 5.28

With HLA-A*03:01 as the test system, `VLMHPDFCK` showed pKd of 8.06

With HLA-A*03:01 as the test system, `IIVAGFSGK` showed pKd of 8.04

With HLA-A*03:01 as the test system, `ASTTENAAY` showed pKd of 5.66

With HLA-A*03:01 as the test system, `LMTLDDLAIK` showed pKd of 5.78

With HLA-A*03:01 as the test system, `IIKHIYEQY` showed pKd of 5.73

With HLA-A*03:01 as the test system, `AATIQTPTK` showed pKd of 5.39

With HLA-A*03:01 as the test system, `NFSIIELPY` showed pKd of 6.15

With HLA-A*03:01 as the test system, `ALEVLMSPCR` showed pKd of 6.48

With HLA-A*03:01 as the test system, `KMSTDNAVY` showed pKd of 7.36

With HLA-A*03:01 as the test system, `LLKYAGLTIK` showed pKd of 7.97

With HLA-A*03:01 as the test system, `NAVYQCRKLR` showed pKd of 5.14

###

biological target: HLA-C*08:02; assay: IEDB peptide-MHC binding, purified MHC/direct/fluorescence; filed as Kd, often an IC50 or EC50 that approximates it; bounds were set here for any values at or beyond the usual limits of such assays; conditions: source organism: Yellow fever virus
pKd: −log10 of the molar value.
Result type: pKd

Entry `YMPDVLEKL` , pKd reported as ≤ 4.70

###

target: HLA-A*02:12; assay: IEDB peptide-MHC binding, purified MHC/competitive/fluorescence; filed as Kd, often an IC50 or EC50 that approximates it; bounds were set here for any values at or beyond the usual limits of such assays; settings: source organism: Cryptosporidium parvum Iowa II
Result type: Kd

Entry `DLAQDPMLI` , Kd reported as ≥ 20 µM

###

Measured Kd values are reported for all entries that follow.
target: HLA-B*54:01; experiment: IEDB peptide-MHC binding, purified MHC/competitive/radioactivity; filed as Kd, often an IC50 or EC50 that approximates it; bounds were set here for any values at or beyond the usual limits of such assays; details: source organism: SARS coronavirus Tor2
Report the value in nM with no unit label.

Solved cases (4 shown):
INSERT INTO assay_data (chain, unit_name, value) VALUES
  ('MPYVFTLLF', 'nM', 30.6),
  ('VPYNMRVIHF', 'nM', 505),
  ('LPIDKCSRII', 'nM', 1140),
  ('LPFHRWHTM', 'nM', 274);

Next item in the queue.
With HLA-B*54:01 as the test system, `CPAVAVHDF` showed Kd of 7480

###

target: HLA-B*18:01; test: IEDB peptide-MHC binding, purified MHC/competitive/fluorescence; filed as Kd, often an IC50 or EC50 that approximates it; bounds were set here for any values at or beyond the usual limits of such assays; conditions: source organism: Influenza A virus (A/ruddy turnstone/Delaware/67/1998(H12N4))
Result type: Kd

With HLA-B*18:01 as the test system, `IVFMWAIHH` showed Kd of ≥ 20 µM

###

target: HLA-B*57:01; assay: IEDB peptide-MHC binding, purified MHC/competitive/fluorescence; filed as Kd, often an IC50 or EC50 that approximates it; bounds were set here for any values at or beyond the usual limits of such assays; conditions: source organism: Toxoplasma gondii
pKd: −log10 of the molar value.
Result type: pKd

With HLA-B*57:01 as the test system, `VSSHKGWAK` showed pKd of ≤ 4.70

###

target: HLA-B*15:09; assay: IEDB peptide-MHC binding, purified MHC/direct/fluorescence; filed as Kd, often an IC50 or EC50 that approximates it; bounds were set here for any values at or beyond the usual limits of such assays; details: source organism: Influenza A virus (A/Taiwan/2/2006(H1N1))
pKd: −log10 of the molar value.
Result type: pKd

Entry `CFMYSDFHF` , pKd reported as ≤ 4.70

###

target: HLA-B*27:03; test: IEDB peptide-MHC binding, purified MHC/competitive/fluorescence; filed as Kd, often an IC50 or EC50 that approximates it; bounds were set here for any values at or beyond the usual limits of such assays; settings: source organism: Orthohantavirus tulaense
pKd: −log10 of the molar value.
Result type: pKd

With HLA-B*27:03 as the test system, `VVDALRNIY` showed pKd of ≤ 4.70

###

target: HLA-B*40:01; test: IEDB peptide-MHC binding, purified MHC/direct/fluorescence; filed as Kd, often an IC50 or EC50 that approximates it; bounds were set here for any values at or beyond the usual limits of such assays; conditions: source organism: Mycobacterium tuberculosis variant bovis
pKd: −log10 of the molar value.
Result type: pKd

With HLA-B*40:01 as the test system, `TPREAPYEL` showed pKd of ≤ 4.70

###

biological target: HLA-B*44:02; test: IEDB peptide-MHC binding, purified MHC/direct/fluorescence; filed as Kd, often an IC50 or EC50 that approximates it; bounds were set here for any values at or beyond the usual limits of such assays; settings: source organism: Salmonella enterica
Result type: Kd

Entry `WTLETLPRV` , Kd reported as ≥ 20 µM

###

target: HLA-B*54:01; assay: IEDB peptide-MHC binding, purified MHC/competitive/radioactivity; filed as Kd, often an IC50 or EC50 that approximates it; bounds were set here for any values at or beyond the usual limits of such assays; conditions: source organism: Vaccinia virus WR
Result type: pKd
Answer as the number alone; pKd is minus log10 of concentration in mol/L.

Solved cases (4 shown):
INSERT INTO measurements (chain, value) VALUES
  ('LPTLFGRGV', 8.70),
  ('CPASKKESVI', 5.62),
  ('IPSLFIESSI', 6.37),
  ('VPLPCQLMYA', 9.87);

Entry `GPMPYMISTY` , pKd reported as 5.82
